Target: IDH1 R132C (Homo sapiens, UniProt O75874, R132C)
Sequence (O75874 whole entry R132C): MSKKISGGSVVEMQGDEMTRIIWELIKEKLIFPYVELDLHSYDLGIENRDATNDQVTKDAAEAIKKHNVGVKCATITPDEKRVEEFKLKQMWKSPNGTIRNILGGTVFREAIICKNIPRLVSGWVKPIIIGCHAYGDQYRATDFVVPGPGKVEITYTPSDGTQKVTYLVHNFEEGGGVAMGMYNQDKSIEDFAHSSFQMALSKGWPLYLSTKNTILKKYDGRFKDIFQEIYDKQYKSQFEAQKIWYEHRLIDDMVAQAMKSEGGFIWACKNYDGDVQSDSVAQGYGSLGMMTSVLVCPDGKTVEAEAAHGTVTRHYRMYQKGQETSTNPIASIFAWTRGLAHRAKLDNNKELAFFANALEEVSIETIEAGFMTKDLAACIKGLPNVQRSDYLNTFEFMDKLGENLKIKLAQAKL
Test: Enzymatic inhibition assay, mutant IDH1 R132C (NADPH depletion coupled to diaphorase/resazurin)
Conditions: IDH1 R132C enzyme, IC50 class
assay.metric: IC50

molecule: CCOc1ccc(Cl)c(-n2c(C=C(C)C)c(C(=O)N3CCNCC3)cc(-c3nc(-c4ccc(Cl)cc4)cs3)c2=O)c1 (single isomer, unassigned) [Compound 139-2]
tested.target: IDH1 R132C (Homo sapiens, UniProt O75874, R132C)
assay.metric: IC50
result: 1000 to 5000 nM
--
molecule: CCc1cccc(CC)c1-n1c(C=C(C)C)c(C(=O)N2CCNC[C@H]2C)cc(-c2nc(-c3ccc(C(F)F)cc3)cs2)c1=O
tested.target: IDH1 R132C (Homo sapiens, UniProt O75874, R132C)
assay.metric: IC50
result: < 300 nM
--
molecule: CCOc1ccc(Cl)cc1-n1c(C=C(C)C)c(C(=O)N2CC3CCC(C2)N3)cc(-c2nc(-c3ccc(Cl)cc3)cs2)c1=O [Compound 113]
tested.target: IDH1 R132C (Homo sapiens, UniProt O75874, R132C)
assay.metric: IC50
result: < 300 nM
--
molecule: CCc1cccc(CC)c1-n1c(C=C(C)C)c(C(=O)N2CCN[C@@H](C)C2)cc(-c2nc(-c3ccc(Cl)cc3)cs2)c1=O
tested.target: IDH1 R132C (Homo sapiens, UniProt O75874, R132C)
assay.metric: IC50
result: < 300 nM

Could you report IC50 for every entry in the following list?
1. CCc1ccc(OC)cc1-n1c(C=C(C)C)c(C(=O)N2CCNCC2)cc(-c2nc(-c3ccc(C(F)(F)F)cc3)cs2)c1=O
2. CCOc1ccc(Cl)cc1-n1c(C=C(C)C)c(C(=O)N2CCN[C@@H](C)C2)cc(-c2nc(-c3ccc(C(F)(F)F)cc3)cs2)c1=O
3. CCc1ccc(Cl)cc1-n1c(CC(C)C)c(C(=O)N2CCNCC2)cc(-c2nc(-c3ccc(C(F)F)cc3)cs2)c1=O
4. CCc1cccc(CC)c1-n1c(C=C(C)C)c(C(=O)N2CCNC[C@@H]2C)cc(-c2nc(-c3ccc(C(F)F)cc3)cs2)c1=O
5. CCc1cccc(CC)c1-n1c(C=C(C)C)c(C(=O)N2CCNC[C@H]2C)cc(-c2nc(-c3ccc(Cl)cc3)cs2)c1=O

Resp:
1: < 300 nM; 2: < 300 nM; 3: 300 to 1000 nM; 4: < 300 nM; 5: < 300 nM

# map each molecule to its IC50
1. CCOc1ccc(Cl)c(-n2c(C=C(C)C)c(C(=O)N3C[C@H]4CC[C@@H](C3)N4)cc(-c3nc(-c4ccc(C(F)F)cc4)cs3)c2=O)c1
2. CCc1cccc(CC)c1-n1c(C=C(C)C)c(C(=O)N2C[C@H]3CC[C@@H](C2)N3)cc(-c2nc(-c3ccc(C(F)F)nc3)cs2)c1=O

Resp:
1. < 300 nM
2. < 300 nM

Parameter requested: IC50. Apply to each item below.
1. CCOc1ccc(Cl)cc1-n1c(C=C(C)C)c(C(=O)N2CCNCC2)cc(-c2nc(-c3ccc(C#N)cc3)cs2)c1=O (single isomer, unassigned) [Compound 140-2]
2. CNc1ccc(Cl)c(-n2c(C=C(C)C)c(C(=O)N3C[C@H]4CC[C@@H](C3)N4)cc(-c3nc(-c4ccc(Cl)cc4)cs3)c2=O)c1
3. CCc1ccc(Cl)cc1-n1c(C=C(C)C)c(C(=O)N2CC3CCC(C2)N3)cc(-c2nc(-c3ccc(Cl)cc3)cs2)c1=O [Compound 133]
4. CCOc1ccc(Cl)cc1-n1c(C=C(C)C)c(C(=O)N2CC3CCC(C2)N3)cc(-c2nc(-c3ccc(Cl)cc3)cs2)c1=O (single isomer, unassigned) [Compound 113-2]
5. CCc1ccc(Cl)cc1-n1c(C=C(C)C)c(C(=O)N2CC3CCC(C2)N3)cc(-c2nc(-c3ccc(Cl)cc3)cs2)c1=O (single isomer, unassigned) [Compound 133-2]
6. CCOc1ccc(Cl)c(-n2c(C=C(C)C)c(C(=O)N3CC4CCC(C3)N4)cc(-c3nc(-c4ccc(Cl)cc4)cs3)c2=O)c1 (single isomer, unassigned) [Compound 126-1]
7. CCOc1ccc(N(CC)CC)cc1-n1c(C=C(C)C)c(C(=O)N2CCNCC2)cc(-c2nc(-c3ccc(Cl)cc3)cs2)c1=O

Resp:
1. 300 to 1000 nM
2. < 300 nM
3. < 300 nM
4. 300 to 1000 nM
5. 300 to 1000 nM
6. < 300 nM
7. < 300 nM
